# test-protocol: Pharmacokinetic study of OSIM in rats, alone or after voriconazole, itraconazole or fluconazole pretreatment (plasma concentration by HPLC-MS/MS)
# Type: in vivo, Sprague-Dawley rats
# test-parameters: male, Sprague-Dawley, rat, plasma, po, 10 mg/kg, OSIM 10 mg/kg oral, control (0.3% CMC-Na), rats, n = 6, mean ± SD
assay-readout: half-life (h)
Please give a number only; it is taken to be in h.

Query: GET /values?readout=half-life&item= C=CC(=O)Nc1cc(Nc2nccc(-c3cn(C)c4ccccc34)n2)c(OC)cc1N(C)CCN(C)C [OSIM, Osimertinib]
Result: 6.65

* * *

# test-protocol: Pharmacokinetic study of OSIM in rats, alone or after voriconazole, itraconazole or fluconazole pretreatment (plasma concentration by HPLC-MS/MS)
# Type: in vivo, Sprague-Dawley rats
# test-parameters: male, Sprague-Dawley, rat, plasma, po, 10 mg/kg, OSIM 10 mg/kg oral after itraconazole 20 mg/kg oral once daily for 5 days, rats, n = 6
# Description: A liquid chromatography with tandem mass spectrometry (HPLC-MS/MS) system coupled to a JasperTM HPLC and Triple […] and equipped with an electrospray ionization (ESI) interface source (AB Sciex, Redwood City, CA, USA) was used for the analysis. […] Waters Corp., Milford, MA, USA) maintained at 45 °C. Mobile phase A was 0.2% formic acid in water, and mobile phase B was acetonitrile. […]
assay-readout: Cmax (ng/mL)
Please give a number only; it is taken to be in ng/mL.

Query: GET /values?readout=Cmax&item= C=CC(=O)Nc1cc(Nc2nccc(-c3cn(C)c4ccccc34)n2)c(OC)cc1N(C)CCN(C)C
Result: 37.7

* * *

# test-protocol: Pharmacokinetic study of OSIM in rats, alone or after voriconazole, itraconazole or fluconazole pretreatment (plasma concentration by HPLC-MS/MS)
# Assay type: in vivo, Sprague-Dawley rats
# test-parameters: male, Sprague-Dawley, rat, plasma, po, 10 mg/kg, OSIM 10 mg/kg oral after voriconazole 20 mg/kg oral once daily for 5 days, rats, n = 6; read-out: Vz/F
assay-readout: Vd/F
Remember to put the unit after the number in your answer.

Query: GET /values?readout=Vd/F&item= C=CC(=O)Nc1cc(Nc2nccc(-c3cn(C)c4ccccc34)n2)c(OC)cc1N(C)CCN(C)C [OSIM, Osimertinib]
Result: 132 L/kg

* * *

# test-protocol: Pharmacokinetic study of OSIM in rats, alone or after voriconazole, itraconazole or fluconazole pretreatment (plasma concentration by HPLC-MS/MS)
# Type: in vivo, Sprague-Dawley rats
# test-parameters: male, Sprague-Dawley, rat, plasma, po, 10 mg/kg, OSIM 10 mg/kg oral after itraconazole 20 mg/kg oral once daily for 5 days, rats, n = 6; read-out: Vz/F
# Protocol: A liquid chromatography with tandem mass spectrometry (HPLC-MS/MS) system coupled to a JasperTM HPLC and Triple […] and equipped with an electrospray ionization (ESI) interface source (AB Sciex, Redwood City, CA, USA) was used for the analysis. […] Waters Corp., Milford, MA, USA) maintained at 45 °C. Mobile phase A was 0.2% formic acid in water, and mobile phase B was acetonitrile. […]
assay-readout: Vd/F (L/kg)
Please give a number only; it is taken to be in L/kg.

Query: GET /values?readout=Vd/F&item= C=CC(=O)Nc1cc(Nc2nccc(-c3cn(C)c4ccccc34)n2)c(OC)cc1N(C)CCN(C)C
Result: 228

* * *

# test-protocol: Pharmacokinetic study of OSIM in rats, alone or after voriconazole, itraconazole or fluconazole pretreatment (plasma concentration by HPLC-MS/MS)
# Type: in vivo, Sprague-Dawley rats
# test-parameters: male, Sprague-Dawley, rat, plasma, po, 10 mg/kg, OSIM 10 mg/kg oral after fluconazole 20 mg/kg oral once daily for 5 days, rats, n = 6
assay-readout: Tmax (h)
Please give a number only; it is taken to be in h.

Query: GET /values?readout=Tmax&item= C=CC(=O)Nc1cc(Nc2nccc(-c3cn(C)c4ccccc34)n2)c(OC)cc1N(C)CCN(C)C
Result: 3.17

* * *

# test-protocol: Pharmacokinetic study of OSIM in rats, alone or after voriconazole, itraconazole or fluconazole pretreatment (plasma concentration by HPLC-MS/MS)
# Assay type: in vivo, Sprague-Dawley rats
# test-parameters: male, Sprague-Dawley, rat, plasma, po, 10 mg/kg, OSIM 10 mg/kg oral after fluconazole 20 mg/kg oral once daily for 5 days, rats, n = 6
assay-readout: AUC(0-t) (ng·h/mL)
Please give a number only; it is taken to be in ng·h/mL.

Query: GET /values?readout=AUC(0-t)&item= C=CC(=O)Nc1cc(Nc2nccc(-c3cn(C)c4ccccc34)n2)c(OC)cc1N(C)CCN(C)C
Result: 521

* * *

# test-protocol: Pharmacokinetic study of OSIM in rats, alone or after voriconazole, itraconazole or fluconazole pretreatment (plasma concentration by HPLC-MS/MS)
# Type: in vivo, Sprague-Dawley rats
# test-parameters: male, Sprague-Dawley, rat, plasma, po, 10 mg/kg, OSIM 10 mg/kg oral after itraconazole 20 mg/kg oral once daily for 5 days, rats, n = 6
assay-readout: AUC(0-inf) (ng·h/mL)
Please give a number only; it is taken to be in ng·h/mL.

Query: GET /values?readout=AUC(0-inf)&item= C=CC(=O)Nc1cc(Nc2nccc(-c3cn(C)c4ccccc34)n2)c(OC)cc1N(C)CCN(C)C [OSIM, Osimertinib]
Result: 357

* * *

# test-protocol: Pharmacokinetic study of OSIM in rats, alone or after voriconazole, itraconazole or fluconazole pretreatment (plasma concentration by HPLC-MS/MS)
# Format: in vivo, Sprague-Dawley rats
# test-parameters: male, Sprague-Dawley, rat, plasma, po, 10 mg/kg, OSIM 10 mg/kg oral after fluconazole 20 mg/kg oral once daily for 5 days, rats, n = 6; read-out: Vz/F
# Description: A liquid chromatography with tandem mass spectrometry (HPLC-MS/MS) system coupled to a JasperTM HPLC and Triple […] and equipped with an electrospray ionization (ESI) interface source (AB Sciex, Redwood City, CA, USA) was used for the analysis. […] Waters Corp., Milford, MA, USA) maintained at 45 °C. Mobile phase A was 0.2% formic acid in water, and mobile phase B was acetonitrile. […]
assay-readout: Vd/F (L/kg)
Please give a number only; it is taken to be in L/kg.

Query: GET /values?readout=Vd/F&item= C=CC(=O)Nc1cc(Nc2nccc(-c3cn(C)c4ccccc34)n2)c(OC)cc1N(C)CCN(C)C
Result: 162

* * *

# test-protocol: Pharmacokinetic study of OSIM in rats, alone or after voriconazole, itraconazole or fluconazole pretreatment (plasma concentration by HPLC-MS/MS)
# Type: in vivo, Sprague-Dawley rats
# test-parameters: male, Sprague-Dawley, rat, plasma, po, 10 mg/kg, OSIM 10 mg/kg oral, control (0.3% CMC-Na), rats, n = 6, mean ± SD
assay-readout: CL/F (mL/min/kg)
Please give a number only; it is taken to be in mL/min/kg.

Query: GET /values?readout=CL/F&item= C=CC(=O)Nc1cc(Nc2nccc(-c3cn(C)c4ccccc34)n2)c(OC)cc1N(C)CCN(C)C
Result: 644

* * *

# test-protocol: Pharmacokinetic study of OSIM in rats, alone or after voriconazole, itraconazole or fluconazole pretreatment (plasma concentration by HPLC-MS/MS)
# Assay type: in vivo, Sprague-Dawley rats
# test-parameters: male, Sprague-Dawley, rat, plasma, po, 10 mg/kg, OSIM 10 mg/kg oral after voriconazole 20 mg/kg oral once daily for 5 days, rats, n = 6
assay-readout: Cmax (ng/mL)
Please give a number only; it is taken to be in ng/mL.

Query: GET /values?readout=Cmax&item= C=CC(=O)Nc1cc(Nc2nccc(-c3cn(C)c4ccccc34)n2)c(OC)cc1N(C)CCN(C)C
Result: 52.3

* * *

# test-protocol: Pharmacokinetic study of OSIM in rats, alone or after voriconazole, itraconazole or fluconazole pretreatment (plasma concentration by HPLC-MS/MS)
# Type: in vivo, Sprague-Dawley rats
# test-parameters: male, Sprague-Dawley, rat, plasma, po, 10 mg/kg, OSIM 10 mg/kg oral, control (0.3% CMC-Na), rats, n = 6, mean ± SD
assay-readout: AUC(0-inf) (ng·h/mL)
Please give a number only; it is taken to be in ng·h/mL.

Query: GET /values?readout=AUC(0-inf)&item= C=CC(=O)Nc1cc(Nc2nccc(-c3cn(C)c4ccccc34)n2)c(OC)cc1N(C)CCN(C)C [OSIM, Osimertinib]
Result: 264

* * *

# test-protocol: Pharmacokinetic study of OSIM in rats, alone or after voriconazole, itraconazole or fluconazole pretreatment (plasma concentration by HPLC-MS/MS)
# Assay type: in vivo, Sprague-Dawley rats
# test-parameters: male, Sprague-Dawley, rat, plasma, po, 10 mg/kg, OSIM 10 mg/kg oral, control (0.3% CMC-Na), rats, n = 6, mean ± SD
assay-readout: AUC(0-t) (ng·h/mL)
Please give a number only; it is taken to be in ng·h/mL.

Query: GET /values?readout=AUC(0-t)&item= C=CC(=O)Nc1cc(Nc2nccc(-c3cn(C)c4ccccc34)n2)c(OC)cc1N(C)CCN(C)C
Result: 259

Origin of measurements: paper PMC10423561
